Molecular target: T1, monkey GPC3 on HEK293T-monkey GPC3 cells (monkey)
T1 construct: whole, on cells
Assay: FACS on HEK293T-monkey GPC3 cells
Catalogue of binders with associated pEC50
// field semantics: pEC50 = negative decimal log of concentration (mol/L)

Example entries and their recorded answers appear below.
| binder | endpoint-result |
| --- | --- |
| hAb006LH2L1 (antibody, human IgG1, V domains shown, Humanized F3.38.7) VH: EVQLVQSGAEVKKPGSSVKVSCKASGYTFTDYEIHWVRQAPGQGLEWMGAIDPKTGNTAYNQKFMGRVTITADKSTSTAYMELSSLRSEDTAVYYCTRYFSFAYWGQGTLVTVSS VL: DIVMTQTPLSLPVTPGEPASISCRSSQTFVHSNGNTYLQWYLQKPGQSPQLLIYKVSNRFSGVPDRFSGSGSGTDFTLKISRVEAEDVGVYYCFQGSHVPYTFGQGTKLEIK | 8.78 |
| hAb006LH3L1c (antibody, human IgG1, V domains shown, Humanized F3.38.7) VH: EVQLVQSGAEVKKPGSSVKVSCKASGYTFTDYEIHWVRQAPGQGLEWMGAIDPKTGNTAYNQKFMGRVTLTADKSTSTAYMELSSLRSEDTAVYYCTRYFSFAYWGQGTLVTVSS VL: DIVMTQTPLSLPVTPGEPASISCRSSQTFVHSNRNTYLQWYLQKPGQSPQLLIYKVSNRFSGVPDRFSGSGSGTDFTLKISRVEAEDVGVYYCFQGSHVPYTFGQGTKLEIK | 8.39 |

Please examine the following record next.
Input: So what's the measured pEC50 for this one? hAb007LH1L1b (antibody, human IgG1, V domains shown, Humanized F3.81.19) VH: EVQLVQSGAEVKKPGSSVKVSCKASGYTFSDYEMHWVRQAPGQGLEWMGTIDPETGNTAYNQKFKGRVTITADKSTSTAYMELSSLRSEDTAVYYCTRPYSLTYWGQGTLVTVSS VL: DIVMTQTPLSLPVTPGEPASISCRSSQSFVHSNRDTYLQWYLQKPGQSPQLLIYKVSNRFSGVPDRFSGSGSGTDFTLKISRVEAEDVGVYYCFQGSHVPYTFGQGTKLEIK
Output: 7.91
